Tested on: clinical strains of E. cloacae
Assay: MIC, microdilution, clinical strains
Type: cell-based
Conditions: Enterobacter cloacae strain 3, Muller Hinton broth-cation adjusted, 0.02% BSA, 0.2% acetic acid
Where a SMILES comes first, the peptide text is derived from it. [ ]: non-standard residue; d: D form.
Known Minimum inhibitory concentration of a selection of compounds
Answer using only a numeral; do not append any unit.

>  <compound>
CC[C@@H](C)[C@@H](NC(=O)[C@@H](CC(C)C)NC(=O)[C@@H](CCCNC(=N)N)NC(=O)[C@H](N)CCCNC(=N)N)C(=O)N[C@H](Cc1c[nH]c2ccccc12)C(=O)N[C@H](CCCNC(=N)N)C(=O)N[C@H](CCCNC(=N)N)C(=O)N[C@H](Cc1ccccc1)C(=O)N[C@H](CCCCN)C(=O)N[C@H](Cc1c[nH]c2ccccc12)C(=O)N[C@H](CC(C)C)C(=O)N[C@H](CCCNC(=N)N)C(=O)O [Chain204D] (H-[dR][dR][dL][dI][dW][dR][dR][dF][dK][dW][dL][dR]-OH)

>  <reading>
4

$$$$

Okay, now this compound:
Tell me its Minimum inhibitory concentration on clinical strains of E. cloacae: CC(C)C[C@@H](NC(=O)[C@@H](CCCCN)NC(=O)[C@@H](CCCCN)NC(=O)[C@@H](Cc1ccccc1)NC(=O)[C@@H](CC(C)C)NC(=O)[C@@H](Cc1c[nH]c2ccccc12)NC(=O)[C@@H](CCCNC(=N)N)NC(=O)[C@@H](Cc1c[nH]c2ccccc12)NC(=O)[C@@H](CCCCN)NC(=O)[C@@H](CCCNC(=N)N)NC(=O)[C@H](N)CCCCN)C(=O)O [Chain310D] (H-[dK][dR][dK][dW][dR][dW][dL][dF][dK][dK][dL]-OH)
16

* * *

Test system: clinical strains of E. coli
Assay: MIC, microdilution, clinical strains
Assay type: cell-based
Conditions: Escherichia coli strain 5; microdilution, Muller Hinton broth-cation adjusted, 0.02% BSA, 0.2% acetic acid
Experimental: Minimum inhibition concetrations (MICs) were determined against Escherichia coli (ATCC 25922), Staphylococcus aureus (ATCC 25923), Klebsiella pneumoniae (ATCC 10031) and Pseudomonas aeruginosa (ATCC 27853). […] The susceptibility of these microorganisms to Chain peptides were determined using micro broth dilution assay. […] Concentrations of Chain peptides and reference antibiotics ranged from 0.125 to 128 μg/ml and the MICs were recorded as the lowest concentration with no visual growth of bacteria. […]
Where a SMILES comes first, the peptide text is derived from it. [ ]: non-standard residue; d: D form.
Overview of recorded Minimum inhibitory concentration for various compounds
Response field accepts a number only; no unit should be typed.

>  <compound>
CC(C)C[C@@H](NC(=O)[C@H](N)CCCCN)C(=O)N[C@H](CCCCN)C(=O)N[C@H](Cc1c[nH]c2ccccc12)C(=O)N[C@H](Cc1ccccc1)C(=O)N[C@H](Cc1c[nH]c2ccccc12)C(=O)N[C@H](CC(C)C)C(=O)N[C@H](Cc1ccccc1)C(=O)N[C@H](CCCCN)C(=O)N[C@H](CCCCN)C(=O)N[C@H](CCCNC(=N)N)C(=O)O [Chain311D] (H-[dK][dL][dK][dW][dF][dW][dL][dF][dK][dK][dR]-OH)

>  <reading>
1

$$$$

// fetch Minimum inhibitory concentration given entry CC(C)C[C@@H](NC(=O)[C@@H](CCCCN)NC(=O)[C@@H](Cc1c[nH]c2ccccc12)NC(=O)[C@@H](CCCCN)NC(=O)[C@@H](C)NC(=O)[C@@H](Cc1c[nH]cn1)NC(=O)[C@@H](CC(C)C)NC(=O)[C@@H](CCCNC(=N)N)NC(=O)[C@@H](Cc1c[nH]c2ccccc12)NC(=O)[C@H](N)Cc1c[nH]c2ccccc12)C(=O)N[C@H](Cc1c[nH]c2ccccc12)C(=O)O [Chain109D] (H-[dW][dW][dR][dL][dH][dA][dK][dW][dK][dL][dW]-OH)
4

* * *

Test system: C. glabrata
Experiment: MIC, clinical yeast strains
Type: cell-based
Conditions: C. glabrata clinical yeast strain 4
Where a SMILES comes first, the peptide text is derived from it. [ ]: non-standard residue; d: D form.
Measured Minimum inhibitory concentration by item
Please respond with just the number, no unit label.

>  <compound>
CC(C)C[C@@H](NC(=O)[C@H](N)CCCNC(=N)N)C(=O)N[C@H](CCCCN)C(=O)N[C@H](CCCNC(=N)N)C(=O)N[C@H](Cc1c[nH]c2ccccc12)C(=O)N[C@H](CCCNC(=N)N)C(=O)N[C@H](CC(C)C)C(=O)N[C@H](Cc1ccccc1)C(=O)N[C@H](CCCNC(=N)N)C(=O)N[C@H](CCCCN)C(=O)N[C@H](CCCNC(=N)N)C(=O)O [Chain306D] (H-[dR][dL][dK][dR][dW][dR][dL][dF][dR][dK][dR]-OH)

>  <study system>
C. glabrata

>  <reading>
32

$$$$
>  <compound>
CC(C)C[C@@H](NC(=O)[C@H](N)CCCNC(=N)N)C(=O)N[C@H](CCCCN)C(=O)N[C@H](Cc1c[nH]c2ccccc12)C(=O)N[C@H](Cc1ccccc1)C(=O)N[C@H](Cc1c[nH]c2ccccc12)C(=O)N[C@H](CC(C)C)C(=O)N[C@H](Cc1ccccc1)C(=O)N[C@H](CCCNC(=N)N)C(=O)N[C@H](CCCCN)C(=O)N[C@H](CCCNC(=N)N)C(=O)O [Chain307D] (H-[dR][dL][dK][dW][dF][dW][dL][dF][dR][dK][dR]-OH)

>  <study system>
C. glabrata

>  <reading>
16

$$$$

Read the next record carefully.
Supply reported Minimum inhibitory concentration belonging to this compound: CC(C)C[C@@H](NC(=O)[C@H](N)CCCCN)C(=O)N[C@H](CCCCN)C(=O)N[C@H](Cc1c[nH]c2ccccc12)C(=O)N[C@H](Cc1ccccc1)C(=O)N[C@H](Cc1c[nH]c2ccccc12)C(=O)N[C@H](CC(C)C)C(=O)N[C@H](Cc1ccccc1)C(=O)N[C@H](CCCCN)C(=O)N[C@H](CCCCN)C(=O)N[C@H](CCCNC(=N)N)C(=O)O [Chain311D] (H-[dK][dL][dK][dW][dF][dW][dL][dF][dK][dK][dR]-OH)
64

* * *

This listing pairs compounds with measured Minimum inhibitory concentration.
Tested on: clinical strains of E. coli
Assay: MIC, microdilution, clinical strains
Format: cell-based
Settings: Escherichia coli strain 5; microdilution, Muller Hinton broth-cation adjusted, 0.02% BSA, 0.2% acetic acid
Where a SMILES comes first, the peptide text is derived from it. [ ]: non-standard residue; d: D form.
Write the value as a bare number.

Reference set (2 entries):
>  <compound>
CC(C)C[C@@H](NC(=O)[C@H](N)CCCNC(=N)N)C(=O)N[C@H](CCCCN)C(=O)N[C@H](Cc1c[nH]c2ccccc12)C(=O)N[C@H](Cc1ccccc1)C(=O)N[C@H](CC(C)C)C(=O)N[C@H](CC(C)C)C(=O)N[C@H](Cc1ccccc1)C(=O)N[C@H](CCCNC(=N)N)C(=O)N[C@H](CCCCN)C(=O)N[C@H](CCCNC(=N)N)C(=O)O [Chain308D] (H-[dR][dL][dK][dW][dF][dL][dL][dF][dR][dK][dR]-OH)

>  <experimental readout>
Minimum inhibitory concentration

>  <reading>
1

$$$$
>  <compound>
CC(C)C[C@@H](NC(=O)[C@@H](Cc1c[nH]c2ccccc12)NC(=O)[C@@H](Cc1ccccc1)NC(=O)[C@@H](Cc1c[nH]c2ccccc12)NC(=O)[C@@H](CCCCN)NC(=O)[C@@H](CCCNC(=N)N)NC(=O)[C@H](N)Cc1c[nH]c2ccccc12)C(=O)N[C@H](Cc1ccccc1)C(=O)N[C@H](CCCCN)C(=O)N[C@H](CCCCN)C(=O)N[C@H](CCCNC(=N)N)C(=O)O [Chain309D] (H-[dW][dR][dK][dW][dF][dW][dL][dF][dK][dK][dR]-OH)

>  <experimental readout>
Minimum inhibitory concentration

>  <reading>
16

$$$$

Next compound, Minimum inhibitory concentration to be filled in.
Query Minimum inhibitory concentration for CC(C)C[C@@H](NC(=O)[C@H](N)CCCNC(=N)N)C(=O)N[C@H](CCCCN)C(=O)N[C@H](Cc1c[nH]c2ccccc12)C(=O)N[C@H](Cc1ccccc1)C(=O)N[C@H](Cc1c[nH]c2ccccc12)C(=O)N[C@H](CC(C)C)C(=O)N[C@H](Cc1ccccc1)C(=O)N[C@H](CCCNC(=N)N)C(=O)N[C@H](CCCCN)C(=O)N[C@H](CCCNC(=N)N)C(=O)O [Chain307D] (H-[dR][dL][dK][dW][dF][dW][dL][dF][dR][dK][dR]-OH)
4

* * *

Tested on: clinical strains of K. pneumoniae
Assay: MIC, microdilution, clinical strains
Assay type: cell-based
Details: Klebsiella pneumoniae strain 3, Muller Hinton broth-cation adjusted, 0.02% BSA, 0.2% acetic acid
Where a SMILES comes first, the peptide text is derived from it. [ ]: non-standard residue; d: D form.
experimental readout: Minimum inhibitory concentration
I only need the number, thanks.

>  <molecule>
CC(C)C[C@@H](NC(=O)[C@H](N)CCCNC(=N)N)C(=O)N[C@H](CCCCN)C(=O)N[C@H](Cc1c[nH]c2ccccc12)C(=O)N[C@H](Cc1ccccc1)C(=O)N[C@H](Cc1c[nH]c2ccccc12)C(=O)N[C@H](CC(C)C)C(=O)N[C@H](Cc1ccccc1)C(=O)N[C@H](CCCNC(=N)N)C(=O)N[C@H](CCCCN)C(=O)N[C@H](CCCNC(=N)N)C(=O)O [Chain307D] (H-[dR][dL][dK][dW][dF][dW][dL][dF][dR][dK][dR]-OH)

>  <experimental readout>
Minimum inhibitory concentration

>  <reading>
16

$$$$

Fill in Minimum inhibitory concentration for record CC(C)C[C@@H](NC(=O)[C@H](N)CCCNC(=N)N)C(=O)N[C@H](CCCCN)C(=O)N[C@H](Cc1c[nH]c2ccccc12)C(=O)N[C@H](Cc1ccccc1)C(=O)N[C@H](CC(C)C)C(=O)N[C@H](CC(C)C)C(=O)N[C@H](Cc1ccccc1)C(=O)N[C@H](CCCNC(=N)N)C(=O)N[C@H](CCCCN)C(=O)N[C@H](CCCNC(=N)N)C(=O)O [Chain308D] (H-[dR][dL][dK][dW][dF][dL][dL][dF][dR][dK][dR]-OH)
4
